# ASSAY_SUMMARY: Acute toxicity test, oral (Test Example 5)
# Parameters: species or system ICR-JCL mice
# MEASUREMENT_CONDITIONS: mouse, in vivo, neutralized ester, male mice, 14th day
Could you please report measured LD50 at 336 h for the items listed next?
Answer in mg/kg, number only, no unit symbol.

input: Given the entry CCCCCCCCCCCCCCCCCCOP(=O)(O)OC[C@H]1O[C@@H](n2ccc(N)nc2=O)[C@@H](O)[C@@H]1O , report its measured LD50 at 336 h.
output: 1050

input: // same read-out, input: CCCCCCCC/C=C\CCCCCCCCOP(=O)(O)OC[C@H]1O[C@@H](n2ccc(N)nc2=O)[C@@H](O)[C@@H]1O
output: 3750

input: // same read-out, input: CCCCCCCCCCCCCCCCOP(=O)(O)OC[C@H]1O[C@@H](n2ccc(N)nc2=O)[C@@H](O)[C@@H]1O
output: 2190

input: // same read-out, input: CCCCCCCCCCCCCCCCCCCCOP(=O)(O)OC[C@H]1O[C@@H](n2ccc(N)nc2=O)[C@@H](O)[C@@H]1O
output: 2720

----------
# ASSAY_SUMMARY: Acute toxicity test, intraperitoneal (Test Example 4)
# Set-up: species or system ICR-JCL mice
# MEASUREMENT_CONDITIONS: mouse, in vivo; ip, male mice, 7th day; reliability limit 95% in parentheses
QUANTITY_NAME: LD50 at 168 h

input: Given the entry CCCCCCCCCCCCCCCCCCOP(=O)(O)OC[C@H]1O[C@@H](n2ccc(N)nc2=O)[C@@H](O)[C@@H]1O [C18-ara-CMP ester, ara-CMP-stearyl ester] , report its measured LD50 at 168 h.
output: 137 mg/kg

----------
# ASSAY_SUMMARY: Acute toxicity test, oral (Test Example 4)
# Set-up: species or system ICR-JCL mice
# MEASUREMENT_CONDITIONS: mouse, in vivo, male mice, observed 7 days, reliability limit 95% in parentheses
QUANTITY_NAME: LD50 at 168 h (mg/kg)
Answer in mg/kg, number only, no unit symbol.

input: Given the entry CCCCCCCCCCCCCCCCCCOP(=O)(O)OC[C@H]1O[C@@H](n2ccc(N)nc2=O)[C@@H](O)[C@@H]1O , report its measured LD50 at 168 h.
output: 1400

These measurements were taken from patent US4542021A.
